- Tested on: MS2 coat protein
- protocol.description: apparent Kd, MS2 coat protein; higher = weaker binding; RNA-MaP array
- recorded.conditions: ligand present: tryptophan; designed as: ON switch for tryptophan
Lab note: compare apparent Kd against 70 nM. Equal or greater, write condition met. Smaller, write condition not met.

Example entries begin here.
>>> df
                           polymer_sequence  qualitative_label
0  GGCGACAUGAGGAUCACCCAUGUGACACCUCGAGGACCGGUACGGCCGCCACUCGUAACCUGCACUAUAGCUACCACGAUUAGCC  condition not met
1  GUAUUCAUGACGGCCGCCACUGCAAGCCUCCUCAUGGCAGAUUGACAUGAGGAUCACCCAUGUCUCAGGACCGGGUCUGGCAUCC      condition met
2  GAAGACAUGAGGAUCACCCAUGUUACACACCGAGGACCGGUACGGCCGCCACUCGUAGGCCCUCGGCUCACCUGAGAUCCGCAUC  condition not met
3  GACGAGUAGACGGCCGCCACUAUGCUGCGCAGCCCUAGAAACGCACAUGAGGAUCACCCAUGUCUUAGGACCGGGUCGAACUUAA  condition not met
4  GUGGACAUGAGGAUCACCCAUGUAAGUCGGCGAGGACCGGUACGGCCGCCACUCGUGUUCUGUCUCAGCUCAAACGUAGCCGGAA  condition not met

Moving on to another sequence below.
Prompt: For this sequence, is measured apparent Kd 70 nM or higher? GUCCUCGACACGGCCGCCACUGGCUCGCCUGUUGGCGCCGACCCACAUGAGGAUCACCCAUGUUCCAGGACCGGGUGUCACAGCA
Completion: condition met

====

- Test system: MS2 coat protein
- protocol.description: apparent Kd, MS2 coat protein; higher = weaker binding; RNA-MaP array; theophylline 2 mM where present
- recorded.conditions: designed as: OFF switch for theophylline; no ligand
Lab note: compare apparent Kd against 30 nM. Equal or greater, write TRUE. Smaller, write FALSE.

In [3]: df
Out[3]:
                           polymer_sequence  qualitative_label
0  ACAUGAGGAUCACCCAUGUGGCGACUUGAUACCAGACCCGCACUAGUCCCUUGGCAGCAACUACGUGUGGGACACCCAUGUUAAG              FALSE

Prompt: For this sequence, is measured apparent Kd 30 nM or higher? AGCCUCAUACAUGAGGAUCACCCAUGUGAUACCAGUCAGGAAACUGACCCUUGGCAGCGCAUGAGGAUCACCCAUGCGCGAGGCA
Completion: TRUE

Prompt: Similarly, UAUAUAUAAAUUGAUACCAGCGAGAAAACAUGAGGAUCACCCAUGUUCGCCCAUGUUAAGCGCCCUUGGCAGCAAUAUUAUUAUU ?
Completion: FALSE

Prompt: Similarly, GGUGGAGGCGUGGGACUUGUCUGAACGGAUACCAGCCACAUCACGGGCCCUUGGCAGCUGUACAUGAGGAUCACCCAUGUCGGUC ?
Completion: TRUE

Prompt: Similarly, AGACAUGAGGAUCACCCAUGUAGUAUGGAUACCAGAUCCAGAUUUAUCCCUUGGCAGCUGUGGUACAGUGAUGGAUUGCUCCUAG ?
Completion: TRUE

Prompt: Similarly, UAAUAUCACAUAUUAUGGGUGUAAUGUGAUACCAGCUAGGAAACUAGCCCUUGGCAGCACAUGAGGAUCACCCAUGUAAGCUGUA ?
Completion: TRUE

The origin of these recorded values is the EternaBench riboswitch data.
